These data points were gathered from patent US20260125421A1.

Recorded pIC50 values (SARS-CoV 3CL^pro (Severe acute respiratory syndrome coronavirus)) are given below.
pIC50: −log10 of the molar value.

MOLECULE	pIC50
CC(C)(C)[C@H](NC(=O)[C@@H]1CC1(F)F)C(=O)N1C[C@@H]2CCC[C@@H]2[C@H]1C(=O)NN(C[C@@H]1CC2(CC2)NC1=O)C(=O)[C@H](F)Cl [Example 25]	7.85
CC1(C)C[C@H](CN(NC(=O)[C@@H]2[C@H]3CCC[C@H]3CN2C(=O)[C@@H](NC(=O)C(F)F)C(C)(C)C)C(=O)[C@H](F)Cl)C(=O)N1 [Example 10]	7.28
CCC(CC)[C@H](NC(=O)C(F)F)C(=O)N1C[C@@H]2CCC[C@@H]2[C@H]1C(=O)NN(C[C@H]1CC(C)(C)NC1=O)C(=O)[C@@H](F)Cl [Example 18]	7.64
CC1(C)C[C@@H](CN(NC(=O)[C@@H]2[C@H]3CCC[C@H]3CN2C(=O)[C@@H](NC(=O)[C@@H](F)Cl)C(C)(C)C)C(=O)[C@H](F)Cl)C(=O)N1 [Example 15]	7.92
CCC(CC)[C@H](NC(=O)C(F)F)C(=O)N1C[C@@H]2CCC[C@@H]2[C@H]1C(=O)NN(C[C@@H]1CC(C)(C)NC1=O)C(=O)[C@H](F)Cl [Example 7]	8.05

* * *

Recorded log10 of IC50 values (MERS-CoV 3CL^pro (Middle East respiratory syndrome-related coronavirus)) are given below.
PARAMETER: log10 of IC50 (log10 of the value in nM)

COMPOUND	log10 of IC50
CCC(CC)[C@H](NC(=O)[C@@H](F)Cl)C(=O)N1C[C@@H]2CCC[C@@H]2[C@H]1C(=O)NN(C[C@@H]1CC(C)(C)NC1=O)C(=O)[C@@H](F)Cl [Example 13]	2.42
CCC(CC)[C@H](NC(=O)[C@H](F)Cl)C(=O)N1C[C@@H]2CCC[C@@H]2[C@H]1C(=O)NN(C[C@@H]1CC(C)(C)NC1=O)C(=O)[C@H](F)Cl [Example 9]	2.40
CC1(C)C[C@@H](CN(NC(=O)[C@@H]2[C@H]3CCC[C@H]3CN2C(=O)[C@@H](NC(=O)[C@H](F)Cl)C(C)(C)C)C(=O)[C@@H](F)Cl)C(=O)N1 [Example 16]	3.79
CCC(CC)[C@H](NC(=O)C(F)F)C(=O)N1C[C@@H]2CCC[C@@H]2[C@H]1C(=O)NN(C[C@@H]1CC(C)(C)NC1=O)C(=O)[C@@H](F)Cl [Example 12]	2.74
CCC(CC)[C@H](NC(=O)C(F)F)C(=O)N1C[C@@H]2CCC[C@@H]2[C@H]1C(=O)NN(C[C@@H]1CC(C)(C)NC1=O)C(=O)[C@H](F)Cl [Example 7]	2.21
CC(C)(C)[C@H](NC(=O)[C@@H]1CC1(F)F)C(=O)N1C[C@@H]2CCC[C@@H]2[C@H]1C(=O)NN(C[C@H]1C(=O)N[C@@H]2C[C@@H]21)C(=O)[C@@H](F)Cl [Example 37]	2.51
CC1(C)C[C@H](CN(NC(=O)[C@@H]2[C@H]3CCC[C@H]3CN2C(=O)[C@@H](NC(=O)[C@@H]2CC2(F)F)C(C)(C)C)C(=O)[C@H](F)Cl)C(=O)N1 [Example 5]	3.09
CC1(C)C[C@@H](CN(NC(=O)[C@@H]2[C@H]3CCC[C@H]3CN2C(=O)[C@@H](NC(=O)[C@H](F)Cl)C(C)(C)C)C(=O)[C@H](F)Cl)C(=O)N1 [Example 14]	3.09
CC1(C)C[C@@H](CN(NC(=O)[C@@H]2[C@H]3CCC[C@H]3CN2C(=O)[C@@H](NC(=O)[C@@H]2CC2(F)F)C(C)(C)C)C(=O)[C@@H](F)Cl)C(=O)N1 [Example 2a]	3.46
C[C@@H]1C[C@@H](CN(NC(=O)[C@@H]2[C@H]3CCC[C@H]3CN2C(=O)[C@@H](NC(=O)[C@@H]2CC2(F)F)C(C)(C)C)C(=O)[C@@H](F)Cl)C(=O)N1 [Example 30]	1.96
CCC(CC)[C@H](NC(=O)C(F)F)C(=O)N1C[C@@H]2CCC[C@@H]2[C@H]1C(=O)NN(C[C@H]1CC(C)(C)NC1=O)C(=O)[C@H](F)Cl [Example 8]	3.48
CC1(C)C[C@@H](CN(NC(=O)[C@@H]2[C@@H]3[C@H](CN2C(=O)[C@@H](NC(=O)[C@@H]2CC2(F)F)C(C)(C)C)C3(C)C)C(=O)[C@H](F)Cl)C(=O)N1 [Example 21]	2.60
CC1(C)CC(CN(NC(=O)[C@@H]2[C@H]3CCC[C@H]3CN2C(=O)[C@@H](NC(=O)[C@@H]2CC2(F)F)C(C)(C)C)C(=O)[C@H](F)Cl)C(=O)N1 (mixture of isomers) [Example 3]	2.93
CC(C)(C)[C@H](NC(=O)[C@@H]1CC1(F)F)C(=O)N1C[C@@H]2CCC[C@@H]2[C@H]1C(=O)NN(C[C@H]1CC2(CC2)NC1=O)C(=O)[C@H](F)Cl [Example 26]	2.05
CC1(C)C[C@@H](CN(NC(=O)[C@@H]2[C@H]3CCC[C@H]3CN2C(=O)[C@@H](NC(=O)C(F)F)C(C)(C)C)C(=O)[C@H](F)Cl)C(=O)N1 [Example 11]	2.96
CC1(C)C[C@H](CN(NC(=O)[C@@H]2[C@@H]3[C@H](CN2C(=O)[C@@H](NC(=O)[C@@H]2CC2(F)F)C(C)(C)C)C3(C)C)C(=O)[C@H](F)Cl)C(=O)N1 [Example 24]	3.15
CC[C@H](C)[C@H](NC(=O)C1(F)CC1)C(=O)N1C[C@H]2[C@@H]([C@H]1C(=O)NN(C[C@H]1CC(C)(C)NC1=O)C(=O)[C@@H](F)Cl)C2(C)C [Example 19]	2.74
CC1(C)C[C@H](CN(NC(=O)[C@@H]2[C@H]3CCC[C@H]3CN2C(=O)[C@@H](NC(=O)C(F)F)C(C)(C)C)C(=O)[C@H](F)Cl)C(=O)N1 [Example 10]	2.90
CCC(CC)[C@H](NC(=O)C(F)F)C(=O)N1C[C@@H]2CCC[C@@H]2[C@H]1C(=O)NN(C[C@H]1CC(C)(C)NC1=O)C(=O)[C@@H](F)Cl [Example 18]	2.54
CC(C)(C)[C@H](NC(=O)[C@@H]1CC1(F)F)C(=O)N1C[C@@H]2CCC[C@@H]2[C@H]1C(=O)NN(C[C@@H]1C(=O)N[C@@H]2C[C@H]12)C(=O)[C@H](F)Cl [Example 38]	2.60

* * *

Recorded IC50 values (SARS-CoV 3CL^pro (Severe acute respiratory syndrome coronavirus, UniProt P0C6X7)) are given below.

COMPOUND	IC50, nM
CC1(C)C[C@@H](CN(NC(=O)[C@@H]2[C@H]3CCC[C@H]3CN2C(=O)[C@@H](NC(=O)[C@@H]2CC2(F)F)C(C)(C)C)C(=O)[C@@H](F)Cl)C(=O)N1 [Example 2a]	64
C[C@@H]1C[C@@H](CN(NC(=O)[C@@H]2[C@@H]3[C@H](CN2C(=O)[C@@H](NC(=O)[C@@H]2CC2(F)F)C(C)(C)C)C3(C)C)C(=O)[C@@H](F)Cl)C(=O)N1 [Example 34]	14
CC1(C)C[C@H](CN(NC(=O)[C@@H]2[C@H]3CCC[C@H]3CN2C(=O)[C@@H](NC(=O)[C@@H]2CC2(F)F)C(C)(C)C)C(=O)[C@@H](F)Cl)C(=O)N1 [Example 2b]	1720

* * *

molecular target: SARS-CoV 3CL^pro (Severe acute respiratory syndrome coronavirus, UniProt P0C6X7)
Under this convention, 1.0 denotes IC50 strictly below 10 nM and 0.0 denotes IC50 at or above 10 nM.

> print(dat)
                                smiles.text  cat
1  CC(C)(C)[C@H](NC(=O)[C@@H]1CC1(F)F)C(=O)N1C[C@@H]2CCC[C@@H]2[C@H]1C(=O)NN(C[C@H]1C(=O)N[C@H]2C[C@H]21)C(=O)[C@H](F)Cl  0.0
2  CC(C)(C)[C@H](NC(=O)[C@@H]1CC1(F)F)C(=O)N1C[C@@H]2CCC[C@@H]2[C@H]1C(=O)NN(C[C@H]1C(=O)N[C@@H]2C[C@@H]21)C(=O)[C@H](F)Cl  1.0
3  CC1(C)C[C@@H](CN(NC(=O)[C@@H]2[C@H]3CCC[C@H]3CN2C(=O)[C@@H](NC(=O)[C@H](F)Cl)C(C)(C)C)C(=O)[C@@H](F)Cl)C(=O)N1  0.0
4  C[C@@H]1C[C@H](CN(NC(=O)[C@@H]2[C@@H]3[C@H](CN2C(=O)[C@@H](NC(=O)[C@@H]2CC2(F)F)C(C)(C)C)C3(C)C)C(=O)[C@@H](F)Cl)C(=O)N1  0.0
5  C[C@H]1C[C@@H](CN(NC(=O)[C@@H]2[C@@H]3[C@H](CN2C(=O)[C@@H](NC(=O)[C@@H]2CC2(F)F)C(C)(C)C)C3(C)C)C(=O)[C@H](F)Cl)C(=O)N1  0.0
